Consider the following molecules and their measured remaining at 10 µM readings.
assayProtocol: Metabolic stability in human liver microsomes at 10 uM; note: time not given here
Format: ADME, Microsome
conditionsUsed: read-out: Stability
propertyMeasured: remaining at 10 µM (%)

smilesRecord | propertyMeasured | observedMeasurement
Cc1c(CC(=O)OC(C)C)cc(-c2ccc(S(C)(=O)=O)cc2)n1-c1ccccc1 | remaining at 10 µM | 1
Cc1c(CC(=O)OC(C)C)cc(-c2ccc(S(C)(=O)=O)cc2)n1-c1ccc(F)c(F)c1 | remaining at 10 µM | 13
CCCCOC(=O)Cc1cc(-c2ccc(S(C)(=O)=O)cc2)n(-c2ccc(OC)cc2)c1C | remaining at 10 µM | 2
CCCCOC(=O)Cc1cc(-c2ccc(S(C)(=O)=O)cc2)n(-c2cccc(F)c2)c1C | remaining at 10 µM | 2
Cc1c(CC(=O)O)cc(-c2ccc(S(C)(=O)=O)cc2)n1-c1cccc(F)c1 | remaining at 10 µM | 100
CCCCOC(=O)Cc1cc(-c2ccc(S(C)(=O)=O)cc2)n(-c2ccccc2)c1C | remaining at 10 µM | 3
Cc1c(CC(=O)O)cc(-c2ccc(S(C)(=O)=O)cc2)n1-c1ccc(F)c(F)c1 | remaining at 10 µM | 100
Cc1c(CC(=O)OC(C)C)cc(-c2ccc(S(C)(=O)=O)cc2)n1-c1cccc(F)c1 | remaining at 10 µM | 1
COc1ccc(-n2c(-c3ccc(S(C)(=O)=O)cc3)cc(CC(=O)OC(C)C)c2C)cc1 | remaining at 10 µM | 1
Cc1c(CC(=O)O)cc(-c2ccc(S(C)(=O)=O)cc2)n1-c1ccccc1 | remaining at 10 µM | 97
COc1ccc(-n2c(-c3ccc(S(C)(=O)=O)cc3)cc(CC(=O)O)c2C)cc1 | remaining at 10 µM | 84
CCCCOC(=O)Cc1cc(-c2ccc(S(C)(=O)=O)cc2)n(-c2ccc(F)c(F)c2)c1C | remaining at 10 µM | 15

* * *

Consider the following compounds and their measured IC50 readings.
measurementTarget: Prostaglandin G/H synthase 1 (Homo sapiens, UniProt P23219)
Sequence (P23219 whole entry): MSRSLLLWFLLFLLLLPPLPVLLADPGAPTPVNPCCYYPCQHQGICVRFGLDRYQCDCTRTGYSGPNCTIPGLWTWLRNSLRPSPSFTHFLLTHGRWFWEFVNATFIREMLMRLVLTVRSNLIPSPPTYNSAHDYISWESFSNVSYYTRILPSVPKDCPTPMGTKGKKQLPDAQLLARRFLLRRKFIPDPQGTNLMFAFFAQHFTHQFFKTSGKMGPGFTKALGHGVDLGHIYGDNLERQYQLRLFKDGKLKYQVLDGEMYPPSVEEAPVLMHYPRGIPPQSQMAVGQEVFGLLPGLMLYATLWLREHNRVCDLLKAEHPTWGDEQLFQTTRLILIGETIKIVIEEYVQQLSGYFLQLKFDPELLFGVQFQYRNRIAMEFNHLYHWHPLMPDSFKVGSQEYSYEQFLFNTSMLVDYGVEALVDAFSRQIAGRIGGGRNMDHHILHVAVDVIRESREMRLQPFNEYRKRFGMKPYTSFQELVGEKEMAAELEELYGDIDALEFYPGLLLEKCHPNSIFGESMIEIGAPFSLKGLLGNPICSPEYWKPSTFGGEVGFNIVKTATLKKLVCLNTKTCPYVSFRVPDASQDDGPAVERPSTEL
assayProtocol: Inhibition of COX1 in human whole blood assessed as thromboxane B2 production by RIA

smilesRecord | IC50 / µM
Cc1c(CC(=O)OC(C)C)cc(-c2ccc(S(C)(=O)=O)cc2)n1-c1cccc(F)c1 | 24
Cc1c(CC(=O)O)cc(-c2ccc(S(C)(=O)=O)cc2)n1-c1cccc(F)c1 | 125
Cc1c(CC(=O)O)cc(-c2ccc(S(C)(=O)=O)cc2)n1-c1ccccc1 | 132
Cc1c(CC(=O)OC(C)C)cc(-c2ccc(S(C)(=O)=O)cc2)n1-c1ccccc1 | 20

* * *

assayProtocol: Metabolic stability in human liver microsomes at 0.1 uM; note: time not given here
Assay type: ADME, Microsome
conditionsUsed: read-out: Stability
Consider the following compounds and their measured remaining at 0.1 µM readings.
propertyMeasured: remaining at 0.1 µM (%)

smilesRecord | propertyMeasured | observedMeasurement
Cc1c(CC(=O)OC(C)C)cc(-c2ccc(S(C)(=O)=O)cc2)n1-c1ccc(F)c(F)c1 | remaining at 0.1 µM | 0
Cc1c(CC(=O)O)cc(-c2ccc(S(C)(=O)=O)cc2)n1-c1ccc(F)c(F)c1 | remaining at 0.1 µM | 100
Cc1c(CC(=O)O)cc(-c2ccc(S(C)(=O)=O)cc2)n1-c1ccccc1 | remaining at 0.1 µM | 94

* * *

measurementTarget: Prostaglandin G/H synthase 2 (Homo sapiens, UniProt P35354)
Sequence (P35354 whole entry): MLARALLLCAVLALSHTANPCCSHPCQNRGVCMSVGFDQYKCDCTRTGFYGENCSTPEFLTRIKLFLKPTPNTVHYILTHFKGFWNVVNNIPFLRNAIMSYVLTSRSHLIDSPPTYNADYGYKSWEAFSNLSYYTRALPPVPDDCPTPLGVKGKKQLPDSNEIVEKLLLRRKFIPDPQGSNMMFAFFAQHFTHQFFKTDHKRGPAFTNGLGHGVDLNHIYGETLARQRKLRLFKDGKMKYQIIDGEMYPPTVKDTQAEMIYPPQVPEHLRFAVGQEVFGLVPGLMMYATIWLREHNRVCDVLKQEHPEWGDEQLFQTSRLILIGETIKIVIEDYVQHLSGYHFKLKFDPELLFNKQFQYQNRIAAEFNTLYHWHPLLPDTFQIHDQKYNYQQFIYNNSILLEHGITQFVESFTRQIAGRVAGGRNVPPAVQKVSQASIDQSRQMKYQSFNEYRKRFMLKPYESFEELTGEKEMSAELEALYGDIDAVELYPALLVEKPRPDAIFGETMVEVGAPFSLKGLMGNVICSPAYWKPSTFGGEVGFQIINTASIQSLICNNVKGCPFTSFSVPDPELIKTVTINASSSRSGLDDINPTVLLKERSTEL
assayProtocol: Inhibition of COX2 in human whole blood assessed as inhibition of LPS-induced PGE2 production by RIA
Consider the following compounds and their measured IC50 readings.
propertyMeasured: IC50 (µM)

smilesRecord | propertyMeasured | unitsLabel | observedMeasurement
Cc1c(CC(=O)O)cc(-c2ccc(S(C)(=O)=O)cc2)n1-c1cccc(F)c1 | IC50 | µM | 17
Cc1c(CC(=O)OC(C)C)cc(-c2ccc(S(C)(=O)=O)cc2)n1-c1ccccc1 | IC50 | µM | 2.5
Cc1c(CC(=O)O)cc(-c2ccc(S(C)(=O)=O)cc2)n1-c1ccccc1 | IC50 | µM | 7
Cc1c(CC(=O)OC(C)C)cc(-c2ccc(S(C)(=O)=O)cc2)n1-c1cccc(F)c1 | IC50 | µM | 2

* * *

Organism: Mus musculus
assayProtocol: Selectivity index, ratio of IC50 for mouse COX1 to IC50 for mouse COX2
Consider the following compounds and their measured Ratio IC50 readings.
propertyMeasured: Ratio IC50

smilesRecord | observedMeasurement
CCCCOC(=O)Cc1cc(-c2ccc(S(C)(=O)=O)cc2)n(-c2ccccc2)c1C | > 7100
CCCCOC(=O)Cc1cc(-c2ccc(S(C)(=O)=O)cc2)n(-c2cccc(F)c2)c1C | > 4100
CCOC(=O)Cc1cc(-c2ccc(S(C)(=O)=O)cc2)n(-c2ccccc2)c1C | > 2500
Cc1c(CC(=O)O)cc(-c2ccc(S(C)(=O)=O)cc2)n1-c1cccc(F)c1 | > 3500
CCCCOC(=O)Cc1cc(-c2ccc(S(C)(=O)=O)cc2)n(-c2ccc(F)c(F)c2)c1C | > 3300
CCCCOC(=O)Cc1cc(-c2ccc(S(C)(=O)=O)cc2)n(-c2ccc(OC)cc2)c1C | > 2600
Cc1c(CC(=O)OC(C)C)cc(-c2ccc(S(C)(=O)=O)cc2)n1-c1cccc(F)c1 | > 2300
COc1ccc(-n2c(-c3ccc(S(C)(=O)=O)cc3)cc(CC(=O)O)c2C)cc1 | > 580
Cc1c(CC(=O)O)cc(-c2ccc(S(C)(=O)=O)cc2)n1-c1ccccc1 | > 100
Cc1c(CC(=O)OC(C)C)cc(-c2ccc(S(C)(=O)=O)cc2)n1-c1ccc(F)c(F)c1 | > 4700
Cc1c(CC(=O)O)cc(-c2ccc(S(C)(=O)=O)cc2)n1-c1ccc(F)c(F)c1 | 38
COc1ccc(-n2c(-c3ccc(S(C)(=O)=O)cc3)cc(CC(=O)OC(C)C)c2C)cc1 | > 4500

* * *

assayProtocol: Volume of distribution in Sprague-Dawley rat at 10 mg/kg, iv
Type: ADME, organism-based
Design: dose 10 mg/kg, route intravenous
conditionsUsed: in vivo

smilesRecord | unitsLabel | Vd
Cc1c(CC(=O)OC(C)C)cc(-c2ccc(S(C)(=O)=O)cc2)n1-c1ccccc1 | L | 5.6

* * *

assayProtocol: Metabolic stability in human liver microsomes at 0.1 uM; note: time not given here
Type: ADME, Microsome
conditionsUsed: read-out: Stability
propertyMeasured: remaining at 0.1 µM (%)

smilesRecord | unitsLabel | observedMeasurement
CCCCOC(=O)Cc1cc(-c2ccc(S(C)(=O)=O)cc2)n(-c2ccc(OC)cc2)c1C | % | 5
Cc1c(CC(=O)OC(C)C)cc(-c2ccc(S(C)(=O)=O)cc2)n1-c1ccccc1 | % | 11
Cc1c(CC(=O)OC(C)C)cc(-c2ccc(S(C)(=O)=O)cc2)n1-c1cccc(F)c1 | % | 0
CCCCOC(=O)Cc1cc(-c2ccc(S(C)(=O)=O)cc2)n(-c2ccccc2)c1C | % | 7
CCCCOC(=O)Cc1cc(-c2ccc(S(C)(=O)=O)cc2)n(-c2ccc(F)c(F)c2)c1C | % | 2
COc1ccc(-n2c(-c3ccc(S(C)(=O)=O)cc3)cc(CC(=O)O)c2C)cc1 | % | 77
CCCCOC(=O)Cc1cc(-c2ccc(S(C)(=O)=O)cc2)n(-c2cccc(F)c2)c1C | % | 0
COc1ccc(-n2c(-c3ccc(S(C)(=O)=O)cc3)cc(CC(=O)OC(C)C)c2C)cc1 | % | 7
Cc1c(CC(=O)O)cc(-c2ccc(S(C)(=O)=O)cc2)n1-c1cccc(F)c1 | % | 100

* * *

System: Rattus norvegicus
assayProtocol: Antiinflammatory activity against carrageenan-induced paw edema rat inflammatory model assessed as paw pressure at 20 mg/kg, po after 60 mins
Type: functional
Could you mark each record Criterion met if its Activity falls strictly under 50 g, and Criterion not met if it equals or exceeds it?

compound | assignedLabel
Cc1c(CC(=O)OC(C)C)cc(-c2ccc(S(C)(=O)=O)cc2)n1-c1ccc(F)c(F)c1 | Criterion not met
Cc1c(CC(=O)O)cc(-c2ccc(S(C)(=O)=O)cc2)n1-c1cccc(F)c1 | Criterion not met
Cc1c(CC(=O)O)cc(-c2ccc(S(C)(=O)=O)cc2)n1-c1ccccc1 | Criterion not met
CCCCOC(=O)Cc1cc(-c2ccc(S(C)(=O)=O)cc2)n(-c2ccccc2)c1C | Criterion met
CCCCOC(=O)Cc1cc(-c2ccc(S(C)(=O)=O)cc2)n(-c2ccc(F)c(F)c2)c1C | Criterion not met
Cc1ccc(-c2cc(C(F)(F)F)nn2-c2ccc(S(N)(=O)=O)cc2)cc1 [CELECOXIB] | Criterion not met
Cc1c(CC(=O)OC(C)C)cc(-c2ccc(S(C)(=O)=O)cc2)n1-c1cccc(F)c1 | Criterion not met
Cc1c(CC(=O)O)cc(-c2ccc(S(C)(=O)=O)cc2)n1-c1ccc(F)c(F)c1 | Criterion not met
COc1ccc(-n2c(-c3ccc(S(C)(=O)=O)cc3)cc(CC(=O)OC(C)C)c2C)cc1 | Criterion not met
CCCCOC(=O)Cc1cc(-c2ccc(S(C)(=O)=O)cc2)n(-c2cccc(F)c2)c1C | Criterion met
COc1ccc(-n2c(-c3ccc(S(C)(=O)=O)cc3)cc(CC(=O)O)c2C)cc1 | Criterion met
